The values you see were collected from patent US9073936B2.

- TESTED_ON: PDE1
- PROTOCOL_DETAILS: PDE1 inhibition in vitro, IMAP phosphodiesterase assay
- TEST_PARAMETERS: cGMP-fluorescein substrate, read-out: IC50 (PDE1 inhibitory activity)
READOUT_TYPE: IC50

Ask: Can you look up the measured IC50 of CC(=O)c1ccc(Cn2nc3c(c2Nc2ccc(F)c(C)c2)C(=O)N(C)C2=NC(C)(C)CN23)cc1 [Example 4] for me?
Reply: ≤ 5 nM

Ask: Quick one: CC(=O)c1ccc(Cn2nc3c(c2Nc2ccc(F)c(F)c2)C(=O)N(C)C2=NC(C)(C)CN23)cc1 [Example 3]
Reply: ≤ 5 nM

Ask: // same read-out, input: CC(O)c1ccc(Cn2nc3c(c2Nc2ccc(F)cc2)C(=O)N(C)C2=NC(C)(C)CN23)cc1 (stereo not shown) [Example 2]
Reply: ≤ 5 nM

Ask: What about this compound? CC(=O)c1ccc(Cn2nc3c(c2Nc2ccc(F)cc2)C(=O)N(C)C2=NC(C)(C)CN23)cc1 [Example 1]
Reply: ≤ 5 nM
